# assay.comment: AUC (0 to infinity) in male C57BL/6 mouse at 20 mg/kg, ip measured after 24 hrs by LC-MS/MS analysis
# Format: ADME, organism-based
# reported.conditions: in vivo
quantity.kind: AUC(0-inf) (ng·h/mL)

compound | quantity.kind | measured.value
Cn1ccc(-c2cc(Cl)c(Cl)c3[nH]c4c(c23)CN(C(=O)CNC(=O)CCCC#Cc2cccc3c2CN(C2CCC(=O)NC2=O)C3=O)CC4)n1 (stereo unspecified) | AUC(0-inf) | 2800

----------
# assay.comment: Inhibition of dsDNA-induced cGAS signaling pathway in mouse RAW-Lucia ISG cells preincubated with compound for 24 hrs followed by HT-DNA addition and measured after 24 hrs by QUANTI-Luc luciferase reagent based assay
# Format: cell-based
quantity.kind: IC50

compound | measured.value
Cn1ccc(-c2cc(Cl)c(Cl)c3[nH]c4c(c23)CN(C(=O)CNC(=O)CCCCCC#Cc2cccc3c2CN(C2CCC(=O)NC2=O)C3=O)CC4)n1 (stereo unspecified) | 25.3 µM
Cn1ccc(-c2cc(Cl)c(Cl)c3[nH]c4c(c23)CN(C(=O)CNC(=O)COCCNc2cccc3c2C(=O)N(C2CCC(=O)NC2=O)C3=O)CC4)n1 (stereo unspecified) | > 50 µM
Cn1ccc(-c2cc(Cl)c(Cl)c3[nH]c4c(c23)CN(C(=O)CNC(=O)CCCC#Cc2ccc3c(c2)CN(C2CCC(=O)NC2=O)C3=O)CC4)n1 (stereo unspecified) | > 50 µM
Cn1ccc(-c2cc(Cl)c(Cl)c3[nH]c4c(c23)CN(C(=O)CCCCC#Cc2cccc3c2CN(C2CCC(=O)NC2=O)C3=O)CC4)n1 (stereo unspecified) | > 50 µM
Cn1ccc(-c2cc(Cl)c(Cl)c3[nH]c4c(c23)CN(C(=O)CNC(=O)CCCCCCCCCNc2cccc3c2C(=O)N(C2CCC(=O)NC2=O)C3=O)CC4)n1 (stereo unspecified) | > 50 µM
Cn1ccc(-c2cc(Cl)c(Cl)c3[nH]c4c(c23)CN(C(=O)CNC(=O)CCCCCCCCCCCNc2cccc3c2C(=O)N(C2CCC(=O)NC2=O)C3=O)CC4)n1 (stereo unspecified) | > 50 µM
